# system: human CGT (Homo sapiens, UniProt Q16880)
# Sequence (Q16880 21-541): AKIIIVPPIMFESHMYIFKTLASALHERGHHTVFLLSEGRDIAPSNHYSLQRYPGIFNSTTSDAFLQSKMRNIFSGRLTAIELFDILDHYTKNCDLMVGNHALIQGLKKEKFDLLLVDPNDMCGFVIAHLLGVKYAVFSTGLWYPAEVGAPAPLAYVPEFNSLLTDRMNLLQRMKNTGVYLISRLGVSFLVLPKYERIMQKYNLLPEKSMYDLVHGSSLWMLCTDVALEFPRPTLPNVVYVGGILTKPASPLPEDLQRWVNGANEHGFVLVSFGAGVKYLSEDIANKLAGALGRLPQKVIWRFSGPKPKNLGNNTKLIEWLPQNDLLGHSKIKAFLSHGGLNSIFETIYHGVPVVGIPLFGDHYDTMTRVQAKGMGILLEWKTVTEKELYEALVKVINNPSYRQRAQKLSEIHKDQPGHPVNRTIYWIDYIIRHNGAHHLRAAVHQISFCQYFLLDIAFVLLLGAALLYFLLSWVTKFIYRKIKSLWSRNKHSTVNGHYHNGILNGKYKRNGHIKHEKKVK
# experiment_description: Assay 1: CGT Enzymatic Assay (RapidFire/MS/MS, 0.01% Tween 80)
# Type: biochemical
# cond: Table 1, Compounds of Formula (I) and Formula (II); CGT enzymatic assay; read-out: IC50

{"compound": "C[C@@H]1N(c2ccc(Cl)cc2)C(=O)N(c2ccc(Cl)cc2)C1(O)c1cccc(Br)c1 (some centres unmarked) [Compound 94-1]", "IC50": "< 1 µM"}
{"compound": "CCCC1N(c2ccc(Br)cc2)C(=O)N(c2ccc(Br)cc2)C1(O)c1cccc(C)c1 (centres unmarked) [Compound 96]", "IC50": "< 1 µM"}
{"compound": "O=C1N(c2ccc(Cl)cc2)[C@@H]([C@@H]2CCCO2)C(O)(c2cccc(Cl)c2)N1c1ccc(Cl)cc1 (single isomer, unassigned) [Compound 117-1]", "IC50": "1 to 10 µM"}
{"compound": "O=C1N(c2ccc(Br)cc2)C(O)[C@@](c2ccccc2)(C2CC2)N1c1ccc(Br)cc1 (some centres unmarked) [Example 209-1]", "IC50": "10 to 50 µM"}
{"compound": "O=C1N(c2ccc(Br)cc2)CC(O)(c2ccccc2)N1c1ccccc1 (centres unmarked) [Example 28]", "IC50": "10 to 50 µM"}
{"compound": "O=C1N(c2ccc(Br)cc2)C(=O)C(O)(c2ccc(OC3CC3)c(Cl)c2)N1c1ccc(Br)cc1 (centres unmarked) [Example 171]", "IC50": "50 to 100 µM"}
{"compound": "O=C1N(c2ccc(Cl)cc2)C2(CC2)C(O)(c2cccc(Cl)c2)N1c1ccc(Cl)cc1 (centres unmarked) [Example 228]", "IC50": "< 1 µM"}
{"compound": "CC1(C(F)(F)F)N(c2ccc(Cl)cc2)C(=O)N(c2ccc(Cl)cc2)C1(O)c1cccc(C#N)c1 (centres unmarked) [Example 177]", "IC50": "< 1 µM"}
{"compound": "O=C1N(c2ccc(Cl)cc2)[C@]2(CCOC2)[C@](O)(c2cccc(OC(F)(F)F)c2)N1c1ccc(Cl)cc1 [Compound 234-1]", "IC50": "< 1 µM"}
{"compound": "CCCc1c(-c2cccc(C(F)(F)F)c2)n(-c2ccc(Cl)cc2)c(=O)n1-c1ccc(Cl)cc1 [Compound 243]", "IC50": "1 to 10 µM"}
{"compound": "CCC1N(c2ccc(Cl)cc2)C(=O)N(c2ccc(Cl)cc2)C1(O)c1cccc(OC(F)(F)F)c1 (stereo in doubt) [Compound 82-2]", "IC50": "< 1 µM"}
{"compound": "CCc1cccc(C2(O)C(C)N(c3ccc(Br)cc3)C(=O)N2c2ccc(Br)cc2)c1 (centres unmarked) [Compound 68]", "IC50": "< 1 µM"}
{"compound": "N#Cc1cccc(C2(O)N(c3ccc(Cl)cc3)C(=O)N(c3ccc(Cl)cc3)[C@@]23CCOC3)c1 (some centres unmarked) [Example 221-2]", "IC50": "< 1 µM"}
{"compound": "C[C@@H]1N(c2ccc(Br)cc2)C(=O)N(c2ccc(Br)cc2)C1(O)c1cccc(OC(F)(F)F)c1 (some centres unmarked) [Compound 66-1]", "IC50": "< 1 µM"}
{"compound": "C[C@@H]1N(c2ccc(F)cc2)C(=O)N(c2ccc(F)cc2)C1(O)c1cccc(OC(F)(F)F)c1 (some centres unmarked) [Compound 130-1]", "IC50": "< 1 µM"}
{"compound": "N#Cc1cccc(C2(O)[C@H](C3CC3)N(c3ccc(Cl)cc3)C(=O)N2c2ccc(Cl)cc2)c1 (some centres unmarked) [Example 187-1]", "IC50": "< 1 µM"}
{"compound": "CC(C)c1c(-c2cccc(C#N)c2)n(-c2ccc(Br)cc2)c(=O)n1-c1ccc(Br)cc1 [Example 46]", "IC50": "< 1 µM"}
{"compound": "CCC[C@@H]1N(c2ccc(Cl)cc2)C(=O)N(c2ccc(Cl)cc2)C1(O)c1cccc(Cl)c1 (some centres unmarked) [Compound 114-1]", "IC50": "< 1 µM"}
{"compound": "OC1(c2ccccc2)CN(c2ccc(Br)cc2)C(=S)N1c1ccc(Br)cc1 (centres unmarked) [Example 26]", "IC50": "50 to 100 µM"}
{"compound": "CCCC1N(c2ccc(Cl)cc2)C(=O)N(c2ccc(Cl)cc2)C1(O)CCC (centres unmarked) [Compound 122]", "IC50": "10 to 50 µM"}
{"compound": "CCc1ccc(N2C(=O)N(c3ccc(CC)cc3)C(O)(c3cccc(C#N)c3)[C@H]2C)cc1 (single isomer, unassigned) [Compound 104-2]", "IC50": "< 1 µM"}
{"compound": "C[C@@]1(c2ccccc2)N(c2ccc(Cl)cc2)C(=O)N(c2ccc(Cl)cc2)[C@@]1(O)c1ccccc1 [Compound 121-2]", "IC50": "> 50 µM"}
{"compound": "C[C@@H]1N(c2ccc(Br)cc2)C(=O)N(c2ccc(Br)cc2)C1(O)c1cccc(Cl)c1 (some centres unmarked) [Compound 73-1]", "IC50": "< 1 µM"}
{"compound": "CC[C@H]1N(c2ccc(Cl)cc2)C(=O)N(c2ccc(Cl)cc2)C1(O)c1cccc(C(F)(F)F)c1 (some centres unmarked) [Compound 80-2]", "IC50": "< 1 µM"}
{"compound": "C[C@]1(c2ccccc2)C(O)N(c2ccc(Cl)cc2)C(=O)N1c1ccc(Cl)cc1 (single isomer, unassigned) [Example 223-1]", "IC50": "10 to 50 µM"}
{"compound": "C#Cc1cccc(C2(O)[C@@H](C)N(c3ccc(Cl)cc3)C(=O)N2c2ccc(Cl)cc2)c1 (some centres unmarked) [Compound 93-2]", "IC50": "< 1 µM"}
{"compound": "O=C1N(c2ccc(Br)cc2)C(=O)C(O)(c2ccc(OCC3CC3)cc2)N1c1ccc(Br)cc1 (centres unmarked) [Example 184]", "IC50": "> 50 µM"}
{"compound": "O=C1N(c2ccc(Br)cc2)C(=O)C(O)(c2ccc(OCC3CCCC3)cc2)N1c1ccc(Br)cc1 (centres unmarked) [Example 183]", "IC50": "> 50 µM"}
{"compound": "O=C1N(c2ccc(I)cc2)C(=O)C(O)(c2ccccc2)N1c1ccc(I)cc1 (centres unmarked) [Example 203]", "IC50": "10 to 50 µM"}
